Exercise: for every item that follows, state its recorded polymerase ribozyme fitness (log ratio).
B1: TPR t1 (parent)
chain: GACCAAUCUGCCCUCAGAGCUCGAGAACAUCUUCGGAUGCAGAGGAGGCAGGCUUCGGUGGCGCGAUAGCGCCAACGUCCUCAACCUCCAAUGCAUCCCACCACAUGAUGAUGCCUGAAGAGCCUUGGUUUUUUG

Variants of: B1
Protocol Details: polymerase ribozyme fitness, log enrichment relative to wild type (log ratio); higher = more active; in vitro selection for triplet polymerase activity
Answers are plain numbers.

Field: example entries. Status: answers known.
GACCAAUCUGCCCUCAGAGCUCGAGAACAUCUUCGGAUGCAGAGGAGGCAGGCUUCGGUGGCCCGAUAGCGCCAACGUCCUCAACCUCCAAUGCAUCCCACCACAUGAUGAUGCCUGAAGGGCCUUGGUAUUUUG: 0.94
GACCAAUCUGCCCUCAGAGCUCGAGAACAUCUUCGGAUGCAGAGGAGGCAGGCUUCGGUCGCGCGAUAGCGCCAACGUCCUCAACCUCCAAUGAAUCCCACUACAAGAUGAUGCCUGAAGAGCCUUGGUUUUUUG: -6.72

Hey, quick one: what's polymerase ribozyme fitness (log ratio) for each of these?
1. GACCAAUCUGCCCUCAGAGCUCGAGAACAUCUUCGGAUGCAGAGGAGGGAGGCUUCGGUGGCGCGAUAGCGCCAACGUCCUCAACCUCCAAUGCAUCCCACCACAUGAUGAUGCCUUAAGAGCCUUGGUUUUUUG
2. GACCAAUCUGCCCUCAGAGCUCGAGAACUUCUUCGGAUGCAGAGGAGGCAGGCUUCGGUGGCGCGAUAGCGCCAACGUCCUCGACUUCCAAUGCAUCCCACCACAUGAUGAUGCCUGAAGAGCCUUGGUUUUUUG
3. GACCAAUCUGCCCCCAGAGCUCGAGCACAUCUUCGGAUGCAGAGGAGGCAGGCUUCGGUGGCGCGAUAGUGCCAACGACCUCUACCUCCAAUGCAUCCCACCACAUGAGGAAGCCUGAAGAGCCUUGGUUUUUUG
4. GACCUAUCUGCCCUCAGAGCUCGAGAACAUCUCCGGAUGCAGAGGAGGCAGGCUUCGGUGGCGCGAUAGCGCCAACGUCCUCAACCUCCAAUGCAUCCCACCACAUGAUGAUGCCUGAAGAGCCUUGGUUUUUUG

Result:
1: -2.86; 2: -2.72; 3: -6.59; 4: -3.68

Hey, quick one: what's polymerase ribozyme fitness (log ratio) for each of these?
1. GACCAAUCUGCCCUCAGAGCUCGAGAACAUCUUCGGAUGCAGAGGAGGCAGGCUUCGGUGGCGCGAUAGCGCCAACGUCCUCAACCUCCAAUGCAUCCCACCACAUGAUGAUGCCUUAUGAGCCUUGGUUUUUUG
2. GACCAAUCUGCCCUCAGAGCUCGAGAACAUCUUCGGAUGCAGAGGAGGCAGGCUUCGGUGGCGCGAUAUCGCCAACGUCCUCAACCUCCAAUGUAUCCCAACACAUGAUGAUGCCUGAAGAGCCUUGGUUUUUUG
3. GACCAAUCUGCCCUCAGAGCUCGAGAACAUCUUCGGAUGCAGAGGAGGCAGGCUUCGGUGGCGCGAUAGCGCCAACGUCCUCAACCUCCAAUGCAUCCUACCACAUGAUGAUGCCUGAAGAGCCUUGGUUGUUUG
4. GACCAAUCUGCCCUCAGAGCUCGAGAACAUCUUCGGAUGCAGUGGAGGCAGGCAUCGGUGGCGCGAUAGCGCCAACGUCCUCAACCUCCAAUGCAUCCCACCACAUGAUGAUGCCUGAAGAUCCUUGGUUUUUUG
5. GACCAAUCUGCCCUCAGAGCUCGAGAACAUCUUCGGAUGCAGAGGAGGCAGGCUUCCGUGGCGCGAUAGCGCCAACGUCCUCAACCUCCAAUGCAUGCCACCACAUGAUGAUGCCUGAAGAGCCUUGGUUUUUUG
6. GACCAAUCUGCCCUCAGAGCUCGAGAACAUCUUCGGAUGCAGAGGAGGCAGGCUUCGGUGGCGCGAUAGCGCGAACGUCCUCAACUUCCAAUGCAUCCCACCACAUGAUGAUGCCUGAAGAGCCUUGGUUUUUUG
7. GACCACUCUGCCCUCAGAGCUCGAGAACAUCUUCGGAUGCAGAGGAGGCAGGCUUCGGUGGCGCGAUAGCGCCAACGUCCUCAACCUCCAAUGUAUCCCACCACAAGAUGAUCCCUGAAGAGCCUCGGUUUUGUG
8. GACCAAUCUGCCCUCAGAGCUCGAGAACAUCUUCGGAUGAAGAGGAGGCAGGCUUCGGUGGCGCGAUAGCGCCAACGUCCUCAACCUCCAAUGCAUCCCACAACAUGAUGAUUCCUGAAGAGCAUUGGUUUUUUG

Result:
1. -3.92
2. -0.271
3. -3.59
4. -2.82
5. -4.65
6. -1.29
7. -4.12
8. -6.46

Hey, quick one: what's polymerase ribozyme fitness (log ratio) for each of these?
1. GACCAAUCUGCCCUCAGAGCUAGAGAACAUCUUCGGAUGCAGAGGAGGCAGGGUUCGGUGGCGCGAUAGCGCCAACGUCCUCAACCUCCAAUGCAUCCCACCACAUGAUGAUGCCUGAAGAGCCUUGGUUUUUUG
2. GACCAAUCUGCCCUCAGAGCUCGAGAACAUCUUCGGAUGCAGAGGAGGCAUGCUUCGGUGGCGCGAUAGCGCCAACGUCCUGUACCACCAAUGCAUCCCACCACAUGAUGAUGCCUGAAGAGCCUUGGUUUUUUG
3. GACCAAUCUGCCCUCAGAGCUCGAGAACAUCUUCGGAUGCAGAGGAGGCAGGCUUCGGUGGCGCGAUAGCGCGAACGUCCUCAACCUCCAAUGCAUCCCACCACAUGAUGAUGCGUGAAGAGCCUUGGUUUUUUG
4. GACCAAUCUGCCCUCAGAGCUCGAGAACAUCUUCUGAUGCAGAGGAGGCAGGCUUCGGUGGCGCGAUAGCGCCAACGUCCUCAACCUCCAAUGCAUCCCACCACAUGAUGAUGCAUGAACAGCCUUGGUUUUUUG

Result:
[-5, -1.52, -0.331, -5.77]
